Every entry's value here was drawn from the supplement of paper PMC6555819.

test system: LXRa:RXRa (NR concentration 270 nM, RXRa partner concentration 90 nM); test: PBM binding z-score (relative to random genomic background probes); higher = stronger binding; sequences stand for … in GC…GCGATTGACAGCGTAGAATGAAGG
Label 1 when PBM binding z-score >= 1; otherwise 0.

INSERT INTO results (residue_codes, assigned_category) VALUES
  ('ACTATTAGTTGAGAAGAGGGCAACCGATAGGTTG', 0),
  ('CAAGCTAGGTCACCGGAAGGTCAAAGTCCGCATG', 1),
  ('TCTAGTTGGTCACGGAGGTCAGACACGACGGGTA', 1),
  ('TCATATAGGTACATGCTAGGTGAAAGTCCGATCT', 1),
  ('CTACCAAGGTGAACAAGGTCTTTGATTACTATTC', 0),
  ('CAAACTAGGTCAAGGTCATAGTCGGTTTGTGCCA', 1),
  ('TCATATAGGTAATAGAGGTGAAAGTCGGCATCTA', 1),
  ('TTACCAAGGTGAAAGGTTGTTGATGCACGCCTTG', 1),
  ('GCTTACGGGTCACAGGTTATAGCATGAATAGAAT', 1),
  ('TCATATAGGTAAATGCTAGGTGAAACTCCGATCT', 0),
  ('ACTATTAGTTGAGACGAGGGCACCCGATAGGTTG', 0),
  ('GATATAGGGTCAAGGCCAGAGTACGCGTATTGAT', 1);
